assay-procedure: Ex vivo biodistribution screen of 111In-labeled DOTA-TATE derivatives in normal mice
Parameters: species or system athymic nude mice
condition-info: athymic nude, mouse, liver, iv, 1 ug per mouse, total radioactivity, normal athymic nude mice, 2 h post-injection, i.v. 1 μg, ex vivo, mean, n = 2–4, read-out: Liver uptake
Positions of bridges follow the written chain, without caps; N, C: chain ends. Non-standard residues stand in square brackets, D forms with d. Residues, ends and D or L forms follow the SMILES beside them. *: point of attachment. DOTA = O=C(O)CN1CCN(CC(=O)O)CCN(CC(=O)*)CCN(CC(=O)O)CC1
result-type: tissue uptake at 2 h (%ID/g)
Answers are plain numbers, in %ID/g.

>  <compound>
CSCC[C@H](NC(=O)CN1CCN(CC(=O)O)CCN(CC(=O)O)CCN(CC(=O)O)CC1)C(=O)N[C@H](C(=O)N[C@@H](CCCCNC(=O)CCCC(=O)N[C@H](Cc1ccccc1)C(=O)N[C@H]1CSSC[C@@H](C(=O)N[C@H](C(=O)O)[C@@H](C)O)NC(=O)[C@H]([C@@H](C)O)NC(=O)[C@H](CCCCN)NC(=O)[C@@H](Cc2c[nH]c3ccccc23)NC(=O)[C@H](Cc2ccc(O)cc2)NC1=O)C(=O)O)C(C)C [^111In-DOTA-MVK(ε)-TATE, metal not drawn]

>  <result-type>
tissue uptake at 2 h

>  <experimental-result>
0.16

$$$$

Query block: Name the reported tissue uptake at 2 h value associated with the compound CSCC[C@H](NC(=O)CN1CCN(CC(=O)O)CCN(CC(=O)O)CCN(CC(=O)O)CC1)C(=O)N[C@H](C(=O)N[C@@H](CCCCN)C(=O)N[C@H](Cc1ccccc1)C(=O)N[C@H]1CSSC[C@@H](C(=O)N[C@H](C(=O)O)[C@@H](C)O)NC(=O)[C@H]([C@@H](C)O)NC(=O)[C@H](CCCCN)NC(=O)[C@@H](Cc2c[nH]c3ccccc23)NC(=O)[C@H](Cc2ccc(O)cc2)NC1=O)C(C)C [^111In-DOTA-MVK-TATE, metal not drawn] ({DOTA}-MVK[dF]CY[dW]KTCT-OH; disulfide 5-10)
Result block: 0.25

====

assay-procedure: Ex vivo biodistribution screen of 111In-labeled DOTA-TATE derivatives in normal mice
Design: species or system athymic nude mice
condition-info: athymic nude, mouse, spleen, iv, 1 ug per mouse, total radioactivity, normal athymic nude mice, 2 h post-injection, i.v. 1 μg, ex vivo, mean, n = 2–4, read-out: Spleen uptake
Positions of bridges follow the written chain, without caps; N, C: chain ends. Non-standard residues stand in square brackets, D forms with d. Residues, ends and D or L forms follow the SMILES beside them. *: point of attachment. DOTA = O=C(O)CN1CCN(CC(=O)O)CCN(CC(=O)*)CCN(CC(=O)O)CC1
Provide the recorded tissue uptake at 2 h for the entries that follow.
Give bare numbers, in %ID/g.

Worked examples, 4 molecules total:
>  <molecule>
C[C@@H](O)[C@H](NC(=O)[C@@H]1CSSC[C@H](NC(=O)[C@@H](Cc2ccccc2)NC(=O)CCCC(=O)Nc2cc(COC(=O)N(C)CCNC(=O)CN3CCN(CC(=O)O)CCN(CC(=O)O)CCN(CC(=O)O)CC3)ccc2O[C@@H]2O[C@H](C(=O)O)[C@@H](O)[C@H](O)[C@H]2O)C(=O)N[C@@H](Cc2ccc(O)cc2)C(=O)N[C@H](Cc2c[nH]c3ccccc23)C(=O)N[C@@H](CCCCN)C(=O)N[C@@H]([C@@H](C)O)C(=O)N1)C(=O)O [^111In-DOTA-GlcA-TATE, metal not drawn]

>  <tissue uptake at 2 h / %ID/g>
0.08

$$$$
>  <molecule>
C[C@@H](O)[C@H](NC(=O)[C@@H]1CSSC[C@H](NC(=O)[C@@H](Cc2ccccc2)NC(=O)[C@@H](Cc2ccc(O)cc2)NC(=O)CNC(=O)CN2CCN(CC(=O)O)CCN(CC(=O)O)CCN(CC(=O)O)CC2)C(=O)N[C@@H](Cc2ccc(O)cc2)C(=O)N[C@H](Cc2c[nH]c3ccccc23)C(=O)N[C@@H](CCCCN)C(=O)N[C@@H]([C@@H](C)O)C(=O)N1)C(=O)O [^111In-DOTA-GY*-TATE, metal not drawn] ({DOTA}-G[dY][dF]CY[dW]KTCT-OH; disulfide 4-9)

>  <tissue uptake at 2 h / %ID/g>
0.16

$$$$
>  <molecule>
CSCC[C@H](NC(=O)CN1CCN(CC(=O)O)CCN(CC(=O)O)CCN(CC(=O)O)CC1)C(=O)N[C@H](C(=O)N[C@@H](CCCCN)C(=O)N[C@H](Cc1ccccc1)C(=O)N[C@H]1CSSC[C@@H](C(=O)N[C@H](C(=O)O)[C@@H](C)O)NC(=O)[C@H]([C@@H](C)O)NC(=O)[C@H](CCCCN)NC(=O)[C@@H](Cc2c[nH]c3ccccc23)NC(=O)[C@H](Cc2ccc(O)cc2)NC1=O)C(C)C [^111In-DOTA-MVK-TATE, metal not drawn] ({DOTA}-MVK[dF]CY[dW]KTCT-OH; disulfide 5-10)

>  <tissue uptake at 2 h / %ID/g>
0.18

$$$$
>  <molecule>
C[C@@H](O)[C@H](NC(=O)[C@@H]1CSSC[C@H](NC(=O)[C@@H](Cc2ccccc2)NC(=O)[C@H](Cc2ccc(O)cc2)NC(=O)CNC(=O)CN2CCN(CC(=O)O)CCN(CC(=O)O)CCN(CC(=O)O)CC2)C(=O)N[C@@H](Cc2ccc(O)cc2)C(=O)N[C@H](Cc2c[nH]c3ccccc23)C(=O)N[C@@H](CCCCN)C(=O)N[C@@H]([C@@H](C)O)C(=O)N1)C(=O)O [^111In-DOTA-GY-TATE, metal not drawn] ({DOTA}-GY[dF]CY[dW]KTCT-OH; disulfide 4-9)

>  <tissue uptake at 2 h / %ID/g>
0.17

$$$$

For each of the molecules below, state tissue uptake at 2 h.
1. C[C@@H](O)[C@H](NC(=O)[C@@H]1CSSC[C@H](NC(=O)[C@@H](Cc2ccccc2)NC(=O)CNC(=O)[C@H](CC(=O)O)NC(=O)[C@H](CC(=O)O)NC(=O)[C@H](CC(=O)O)NC(=O)CNC(=O)CN2CCN(CC(=O)O)CCN(CC(=O)O)CCN(CC(=O)O)CC2)C(=O)N[C@@H](Cc2ccc(O)cc2)C(=O)N[C@H](Cc2c[nH]c3ccccc23)C(=O)N[C@@H](CCCCN)C(=O)N[C@@H]([C@@H](C)O)C(=O)N1)C(=O)O [^111In-DOTA-GDDDG-TATE, metal not drawn] ({DOTA}-GDDDG[dF]CY[dW]KTCT-OH; disulfide 7-12)
2. CSCC[C@H](NC(=O)CN1CCN(CC(=O)O)CCN(CC(=O)O)CCN(CC(=O)O)CC1)C(=O)N[C@H](C(=O)N[C@@H](CCCCNC(=O)CCCC(=O)N[C@H](Cc1ccccc1)C(=O)N[C@H]1CSSC[C@@H](C(=O)N[C@H](C(=O)O)[C@@H](C)O)NC(=O)[C@H]([C@@H](C)O)NC(=O)[C@H](CCCCN)NC(=O)[C@@H](Cc2c[nH]c3ccccc23)NC(=O)[C@H](Cc2ccc(O)cc2)NC1=O)C(=O)O)C(C)C [^111In-DOTA-MVK(ε)-TATE, metal not drawn]
3. C[C@@H](O)[C@H](NC(=O)[C@@H]1CSSC[C@H](NC(=O)[C@@H](Cc2ccccc2)NC(=O)CN2CCN(CC(=O)O)CCN(CC(=O)O)CCN(CC(=O)O)CC2)C(=O)N[C@@H](Cc2ccc(O)cc2)C(=O)N[C@H](Cc2c[nH]c3ccccc23)C(=O)N[C@@H](CCCCN)C(=O)N[C@@H]([C@@H](C)O)C(=O)N1)C(=O)O [^111In-DOTA-TATE, metal not drawn, reference compound]

Result block:
0.05
0.12
0.06

====

assay-procedure: Ex vivo biodistribution screen of 111In-labeled DOTA-TATE derivatives in normal mice
Set-up: species or system athymic nude mice
condition-info: athymic nude, mouse, muscle, iv, 1 ug per mouse, total radioactivity, normal athymic nude mice, 2 h post-injection, i.v. 1 μg, ex vivo, mean, n = 2–4, read-out: Muscle uptake
Positions of bridges follow the written chain, without caps; N, C: chain ends. Non-standard residues stand in square brackets, D forms with d. Residues, ends and D or L forms follow the SMILES beside them. *: point of attachment. DOTA = O=C(O)CN1CCN(CC(=O)O)CCN(CC(=O)*)CCN(CC(=O)O)CC1
Field: tissue uptake at 2 h. Provide a value for each of the molecules that follow.
Answers are plain numbers, in %ID/g.

>  <molecule>
C[C@@H](O)[C@H](NC(=O)[C@@H]1CSSC[C@H](NC(=O)[C@@H](Cc2ccccc2)NC(=O)CNC(=O)[C@H](CC(=O)O)NC(=O)[C@H](CC(=O)O)NC(=O)[C@H](CC(=O)O)NC(=O)CNC(=O)CN2CCN(CC(=O)O)CCN(CC(=O)O)CCN(CC(=O)O)CC2)C(=O)N[C@@H](Cc2ccc(O)cc2)C(=O)N[C@H](Cc2c[nH]c3ccccc23)C(=O)N[C@@H](CCCCN)C(=O)N[C@@H]([C@@H](C)O)C(=O)N1)C(=O)O [^111In-DOTA-GDDDG-TATE, metal not drawn] ({DOTA}-GDDDG[dF]CY[dW]KTCT-OH; disulfide 7-12)

>  <units-of-measure>
%ID/g

>  <tissue uptake at 2 h>
0.02

$$$$
>  <molecule>
C[C@@H](O)[C@H](NC(=O)[C@@H]1CSSC[C@H](NC(=O)[C@@H](Cc2ccccc2)NC(=O)CN2CCN(CC(=O)O)CCN(CC(=O)O)CCN(CC(=O)O)CC2)C(=O)N[C@@H](Cc2ccc(O)cc2)C(=O)N[C@H](Cc2c[nH]c3ccccc23)C(=O)N[C@@H](CCCCN)C(=O)N[C@@H]([C@@H](C)O)C(=O)N1)C(=O)O [^111In-DOTA-TATE, metal not drawn, reference compound]

>  <units-of-measure>
%ID/g

>  <tissue uptake at 2 h>
0.01

$$$$
>  <molecule>
C[C@@H](O)[C@H](NC(=O)[C@@H]1CSSC[C@H](NC(=O)[C@@H](Cc2ccccc2)NC(=O)CCCC(=O)Nc2cc(COC(=O)N(C)CCNC(=O)CN3CCN(CC(=O)O)CCN(CC(=O)O)CCN(CC(=O)O)CC3)ccc2O[C@@H]2O[C@H](C(=O)O)[C@@H](O)[C@H](O)[C@H]2O)C(=O)N[C@@H](Cc2ccc(O)cc2)C(=O)N[C@H](Cc2c[nH]c3ccccc23)C(=O)N[C@@H](CCCCN)C(=O)N[C@@H]([C@@H](C)O)C(=O)N1)C(=O)O [^111In-DOTA-GlcA-TATE, metal not drawn]

>  <units-of-measure>
%ID/g

>  <tissue uptake at 2 h>
0.03

$$$$

Query molecule follows.
Query block: If you can, please state the reported tissue uptake at 2 h value of C[C@@H](O)[C@H](NC(=O)[C@@H]1CSSC[C@H](NC(=O)[C@@H](Cc2ccccc2)NC(=O)[C@@H](Cc2ccc(O)cc2)NC(=O)CNC(=O)CN2CCN(CC(=O)O)CCN(CC(=O)O)CCN(CC(=O)O)CC2)C(=O)N[C@@H](Cc2ccc(O)cc2)C(=O)N[C@H](Cc2c[nH]c3ccccc23)C(=O)N[C@@H](CCCCN)C(=O)N[C@@H]([C@@H](C)O)C(=O)N1)C(=O)O [^111In-DOTA-GY*-TATE, metal not drawn] ({DOTA}-G[dY][dF]CY[dW]KTCT-OH; disulfide 4-9) .
Result block: 0.02
